Sourced from patent US20240400708A1

Molecular target: feline FcRn complex (FcRn-α subunit and β-microglobulin) (feline)
Assay: SPR (Biacore), FcRn on SA chip, pH 6
PROPERTY: pKd
Give bare numbers, as −log10 of the molar value.

Please review the entries below; each comes with its answer.
{"columns": ["BINDER", "pKd"],
 "data": [
  ["feline IgG1a mutant ID No. 355: S252Y, S428M, S434F, T256M (antibody, part only; not given: variable domains and light chain, not shown: another chain or arm of the molecule) constant: ASTTAPSVFPLAPSCGTTSGATVALACLVLGYFPEPVTVSWNSGALTSGVHTFPAVLQASGLYSLSSMVTVPSSRWLSDTFTCNVAHPPSNTKVDKTVRKTDHPPGPKPCDCPKCPPPEMLGGPSIFIFPPKPKDTLYISRMPEVTCLVVDLGPDDSDVQITWFVDNTQVYTAKTSPREEQFNSTYRVVSVLPILHQDWLKGKEFKCKVNSKSLPSPIERTISKAKGQPHEPQVYVLPPAQEELSRNKVSVTCLIKSFHPPDIAVEWEITGQPEPENNYRTTPPQLDSDGTYFVYSKLSVDRSHWQRGNTYTCSVMHEALHFHHTQKSLTQSPGK", 10.02],
  ["feline IgG1a mutant ID No. 332: S428Y, D312P, S434Y, Q311R, L314K (antibody, part only; not given: Variable domains, not shown: another chain or arm of the molecule; small tags and cut ends) constant: ASTTAPSVFPLAPSCGTTSGATVALACLVLGYFPEPVTVSWNSGALTSGVHTFPAVLQASGLYSLSSMVTVPSSRWLSDTFTCNVAHPPSNTKVDKTVRKTDHPPGPKPCDCPKCPPPEMLGGPSIFIFPPKPKDTLSISRTPEVTCLVVDLGPDDSDVQITWFVDNTQVYTAKTSPREEQFNSTYRVVSVLPILHRPWKKGKEFKCKVNSKSLPSPIERTISKAKGQPHEPQVYVLPPAQEELSRNKVSVTCLIKSFHPPDIAVEWEITGQPEPENNYRTTPPQLDSDGTYFVYSKLSVDRSHWQRGNTYTCSVYHEALHYHHTQKSLTQSPGK", 9.48],
  ["feline IgG1a mutant ID No. 292: S252Y, S428Y, Q311W, D312P, L314K, S434Y (antibody, part only; not given: variable domains and light chain, not shown: another chain or arm of the molecule; small tags and cut ends) constant: ASTTAPSVFPLAPSCGTTSGATVALACLVLGYFPEPVTVSWNSGALTSGVHTFPAVLQASGLYSLSSMVTVPSSRWLSDTFTCNVAHPPSNTKVDKTVRKTDHPPGPKPCDCPKCPPPEMLGGPSIFIFPPKPKDTLYISRTPEVTCLVVDLGPDDSDVQITWFVDNTQVYTAKTSPREEQFNSTYRVVSVLPILHWPWKKGKEFKCKVNSKSLPSPIERTISKAKGQPHEPQVYVLPPAQEELSRNKVSVTCLIKSFHPPDIAVEWEITGQPEPENNYRTTPPQLDSDGTYFVYSKLSVDRSHWQRGNTYTCSVYHEALHYHHTQKSLTQSPGK", 8.40]
]}

Record feline IgG1a mutant ID No. 321: S428Y, D312P, S434Y, A431K (antibody, part only; not given: Variable domains, not shown: another chain or arm of the molecule) constant: ASTTAPSVFPLAPSCGTTSGATVALACLVLGYFPEPVTVSWNSGALTSGVHTFPAVLQASGLYSLSSMVTVPSSRWLSDTFTCNVAHPPSNTKVDKTVRKTDHPPGPKPCDCPKCPPPEMLGGPSIFIFPPKPKDTLSISRTPEVTCLVVDLGPDDSDVQITWFVDNTQVYTAKTSPREEQFNSTYRVVSVLPILHQPWLKGKEFKCKVNSKSLPSPIERTISKAKGQPHEPQVYVLPPAQEELSRNKVSVTCLIKSFHPPDIAVEWEITGQPEPENNYRTTPPQLDSDGTYFVYSKLSVDRSHWQRGNTYTCSVYHEKLHYHHTQKSLTQSPGK . Reported pKd: 10.27
